In this section, each of the compounds is paired with its reported EC50.
Target Entity: human TMEM16A (TMEM16Aabc variant) (Homo sapiens, UniProt Q5XXA6, DEL476-501, form not given)
Sequence (Q5XXA6 with tags, fused parts or gaps DEL476-501): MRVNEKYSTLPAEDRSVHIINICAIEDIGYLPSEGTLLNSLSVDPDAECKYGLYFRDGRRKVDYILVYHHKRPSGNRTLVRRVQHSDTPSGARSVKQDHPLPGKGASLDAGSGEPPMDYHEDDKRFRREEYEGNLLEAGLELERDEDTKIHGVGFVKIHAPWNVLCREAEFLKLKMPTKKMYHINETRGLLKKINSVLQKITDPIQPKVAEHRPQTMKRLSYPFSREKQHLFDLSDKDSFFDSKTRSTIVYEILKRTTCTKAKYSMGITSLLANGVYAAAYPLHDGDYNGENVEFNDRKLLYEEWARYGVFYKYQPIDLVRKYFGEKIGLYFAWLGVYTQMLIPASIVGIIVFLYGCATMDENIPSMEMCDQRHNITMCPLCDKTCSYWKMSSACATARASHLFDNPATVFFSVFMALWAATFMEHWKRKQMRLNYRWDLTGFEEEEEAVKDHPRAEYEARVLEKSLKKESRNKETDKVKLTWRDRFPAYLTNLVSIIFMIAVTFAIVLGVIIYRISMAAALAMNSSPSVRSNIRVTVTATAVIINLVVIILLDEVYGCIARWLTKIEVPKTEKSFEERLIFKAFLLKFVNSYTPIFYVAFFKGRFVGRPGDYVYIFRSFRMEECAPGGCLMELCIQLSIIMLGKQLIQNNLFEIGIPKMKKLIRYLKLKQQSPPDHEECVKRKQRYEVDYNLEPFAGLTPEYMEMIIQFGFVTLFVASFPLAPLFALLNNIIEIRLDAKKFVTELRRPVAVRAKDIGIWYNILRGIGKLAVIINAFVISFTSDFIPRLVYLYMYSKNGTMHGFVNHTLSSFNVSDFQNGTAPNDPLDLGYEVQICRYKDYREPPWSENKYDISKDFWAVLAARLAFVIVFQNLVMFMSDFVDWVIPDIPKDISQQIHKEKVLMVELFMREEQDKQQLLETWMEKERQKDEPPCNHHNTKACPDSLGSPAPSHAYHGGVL
Measurement Description: Automated whole-cell patch clamp (Qpatch) TMEM16A potentiator assay in FRT cells stably expressing human TMEM16A
Assay Context: calculated EC50, Qpatch TMEM16A current at +70 mV

{"Compound": "CC(C)(NC(=O)c1cc(NC(=O)Cc2ccccc2Cl)ccn1)C1CC1 [Example 30.3]", "Unit Label": "nM", "EC50": 250}
{"Compound": "CC(C)(C)NC(=O)c1cccc(NC(=O)Cc2cc(F)ccc2O)c1 [Example 2.1]", "Unit Label": "nM", "EC50": 490}
{"Compound": "C#CC(C)(C)NC(=O)c1cc(NC(=O)Cc2cc(C(F)(F)F)ccc2O)ccn1 [Example 78.2]", "Unit Label": "nM", "EC50": 20}
{"Compound": "CC(C)(C)NC(=O)c1cc(NC(=O)Cc2cc(Cl)ccc2O)c(F)cn1 [Example 28]", "Unit Label": "nM", "EC50": 400}
{"Compound": "CC(C)(C)c1ccc(O)c(CC(=O)Nc2ccnc(C(=O)NC3(C#N)CCC3)c2)c1 [Example 3.5a]", "Unit Label": "nM", "EC50": 500}
